Tested on: S. aureus JE2 (USA300)
Assay: Broth microdilution MIC/MBC, S. aureus
Format: cell-based, Staphylococcus aureus
Conditions: value before the parentheses; two values = two repeats
readout-kind: MIC S. aureus JE2 (USA300)
# do not omit the unit; it follows the number

May I ask what MIC S. aureus JE2 (USA300) has been recorded for CC(=O)OCC1O[C@@H]([S][Au-][P+](C)(C)C)C(OC(C)=O)[C@@H](OC(C)=O)[C@@H]1OC(C)=O (stereo partly drawn) ?
0.1 µM

What do you have for `CC[PH](CC)(CC)[Au][S]c1ccccc1N` ?
0.009 µM

What do you have for `C[PH](C)(C)[Au][S]CCO` ?
0.3 µM

What do you have for `COc1ccc([P+]([Au-][Cl])(c2ccc(OC)cc2)c2ccc(OC)cc2)cc1` ?
2 µM

What do you have for `CC[P+](CC)(CC)[Au-][S]CCO` ?
0.03 µM

What do you have for CCCC[PH](CCCC)(CCCC)[Au][Cl] [Compound 26, (Tri-n-butylphosphine)gold Chloride] ?
2 µM

What do you have for `CC[PH](CC)(CC)[Au][S]c1ccccc1` ?
0.02 µM

What do you have for COc1ccc([P+]([Au-][S][C@@H]2OC(COC(C)=O)[C@@H](OC(C)=O)[C@H](OC(C)=O)C2OC(C)=O)(c2ccc(OC)cc2)c2ccc(OC)cc2)cc1 (stereo partly drawn) ?
1 µM

What do you have for CC(=O)OCC1O[C@@H]([S][Au-][P+](c2ccc(F)cc2)(c2ccc(F)cc2)c2ccc(F)cc2)C(OC(C)=O)[C@@H](OC(C)=O)[C@@H]1OC(C)=O (stereo partly drawn) ?
1 µM

// provenance: paper PMC7941214
